- TARGET_OR_SYSTEM: T1, recombinant hIL-6R protein, monomeric form (human, UniProt P08887 20-358)
- T1 construct: also called monomeric hIL-6R; Human IL6R
- T1 sequence: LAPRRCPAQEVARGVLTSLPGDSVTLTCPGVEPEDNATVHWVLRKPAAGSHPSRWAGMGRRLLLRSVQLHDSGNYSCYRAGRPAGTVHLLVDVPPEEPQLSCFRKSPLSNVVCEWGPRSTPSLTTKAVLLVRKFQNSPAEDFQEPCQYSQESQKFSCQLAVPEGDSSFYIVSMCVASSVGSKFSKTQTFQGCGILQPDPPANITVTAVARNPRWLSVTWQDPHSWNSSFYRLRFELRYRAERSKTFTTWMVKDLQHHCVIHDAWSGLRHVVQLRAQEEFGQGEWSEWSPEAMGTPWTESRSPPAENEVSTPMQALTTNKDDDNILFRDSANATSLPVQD
- ASSAY_NOTES: SPR (BIAcore), antibody captured on anti-mouse IgG surface, monomeric hIL-6R
MEASURE: pKd
Please keep in mind that pKd is minus log10 of the molar concentration; only the number is needed.

A selection of reference data follows.
1. VV3D8-4 (antibody, V domains shown, Human variable regions with mouse constant region) VH: EVQLVESGGGLVQPGRSLRLSCAASGFTFDDYALHWVRQAPGKGLEWVSGISWNSGRIGYADSVKGRFTISRDNAKNSLFLQMNSLRAEDTALYYCAKGRDAFDIWGQGTLVTVSS VL: DIQMTQSPSSVSASVGDRVTITCRASQGISSWLAWYQQKPGKAPKLLIYAASSLQSGVPSRFSGSGSGTDFTLTISSLQPEDFATYYCQQANSFPYTFGQGTKLEIK; 8.62
2. VV6A9-5 (antibody, V domains shown, Human variable regions with mouse constant region; also called VV6A9-5 mIgG2a) VH: EVQLVESGGGLVQPGRSLRLSCAASGFTFDDYALHWVRQAPGKGLEWVSGVSWNGGRIGYADSVKGRFTISRDNAKNSLFLQMNSLRVEDTALYYCAKGRDAFDIWGQGTLVTVSS VL: DIQMTQSPSSVSASVGDRVTITCRASQGISSWLAWYQQKPGKAPKLLIYAASSLQSGVPSRFSGSGSGTDFTLTISSLQPEDFATYYCQHAYSFPYTFGQGTKLEIK; 10.01
3. VQ8A9-6 (antibody, V domains shown, Human variable regions with mouse constant region (hybridoma-derived chimeric antibody); also called VQ8A9-6 mIgG1) VH: EVQLVESGGNLVQPGRSLRLSCAASGFIFDDYAMHWVRQAPGKGLEWVSGISWNSGSIGYADSVKGRFTISRDNAKNSLYLQMNSLRAEDTALYYCAKDGGSSWLPFVYYYGMDVWGQGTTVTVSS VL: EIVMTQSPATLSVSPGERATLSCRASQSISSNFAWYQQKPGQAPRLLIYGASTRATGIPARFSGSGSGTDFTLTISSLQSEDFAVYYCQQYSSWPPYTFGQGTKLEIK; 9.65

Query: Consider the binder VQ8F11-21 (antibody, V domains shown, Human variable regions with mouse constant region; also called VQ8F11-21 mIgG2a) VH: EVQLVESGGGLVQPGRSLRLSCAASRFTFDDYAMHWVRQAPGKGLEWVSGISWNSGRIGYADSVKGRFTISRDNAENSLFLQMNGLRAEDTALYYCAKGRDSFDIWGQGTMVTVSS VL: DIQMTQSPSSVSASVGDRVTITCRASQGISSWLAWYQQKPGKAPKLLIYGASSLESGVPSRFSGSGSGTDFTLTISSLQPEDFASYYCQQANSFPYTFGQGTKLEIK and give its recorded pKd.
Response: 10.17

Query: Consider the binder VV1G4-7 (antibody, IgG2a, V domains shown, Human variable regions with mouse constant region) VH: QVQLVQSGAEVKEPGASVKVSCKASGYTFTSYDIIWVRQATGQGLEWMGWMNPNSGNTGYTQNLQGRVTLTRNTSITTVYMELSSLSSEDTAVYYCARDYSSHYYGLDVWGQGTTVTVSS VL: DIQLTQSPSFLSTSIGDRVTITCWASQDISNYLAWYQQKPGKAPKLLIFVASTLQSGVPSRFSGSGSGTEFTLTISSLQPEDFATYYCQQFNSYPLTFGGGTKVEIK and give its recorded pKd.
Response: 9.65

Query: Consider the binder VV6C10-1 (antibody, V domains shown, Human variable regions with mouse constant region) VH: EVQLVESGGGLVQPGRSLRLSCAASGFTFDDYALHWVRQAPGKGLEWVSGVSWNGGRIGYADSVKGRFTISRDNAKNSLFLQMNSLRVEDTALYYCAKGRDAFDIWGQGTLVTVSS VL: EIVLTQSPATLSLSPGERATLSCRASQSVSSYLAWYQQKPGQAPRLLIYDASNRATGIPARFSGSGSGTDFTLTISSLEPEDFAFYYCQQRNNRPPFTFGPGTKVDVR and give its recorded pKd.
Response: 9.57

Hello, the source for this data is patent US20070280945A1, in case you need it.
